Biological target: C5a receptor (Homo sapiens)
Sequence (P21730 1-350): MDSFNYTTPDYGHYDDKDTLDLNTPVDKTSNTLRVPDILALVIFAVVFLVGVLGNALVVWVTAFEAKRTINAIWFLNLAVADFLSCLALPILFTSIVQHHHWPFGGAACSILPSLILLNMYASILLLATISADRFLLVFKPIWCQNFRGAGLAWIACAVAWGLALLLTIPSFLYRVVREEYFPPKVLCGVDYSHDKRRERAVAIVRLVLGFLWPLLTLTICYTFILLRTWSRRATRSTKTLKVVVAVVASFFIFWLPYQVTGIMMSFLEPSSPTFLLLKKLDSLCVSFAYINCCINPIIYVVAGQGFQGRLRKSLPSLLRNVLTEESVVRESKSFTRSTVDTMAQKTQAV
Assay: Calcium Mobilization Assay (C5a-induced Ca2+ mobilization, FLIPR, differentiated U937 cells)
Conditions: […] recombinant human C5a, 20 min pre-incubation, multiple values = duplicate experiments, read-out: C5a Induced Ca Mobil. Average IC50
Experimental: U937 cells (human monocytic cell line) were cultured in RPMI-1640 medium supplemented with 10% fetal bovine serum, 10 mM HEPES, 0.11 g/L pyruvate, 0.29 g/L L-glutamine, 100 IU/mL penicillin G and 0.1 g/mL streptomycin. […] Changes in intracellular free Ca^2+ concentration were measured using the Fluorescent Imaging Plate Reader (FLIPR, Molecular Devices). Fluorescence was recorded every second from 10 seconds before the addition of C5a until 2 min after the addition. […]
Class field: derived from IC50; ranges Low = under 0.8 µM, Medium = from 0.8 µM up to 2 µM, High = 2 µM and over

- molecule: "CCCC1(Nc2cc(OC)ccc2C)CCCc2nc(-c3c(CC)cccc3CC)cc(OC)c21 (racemic) [Compound 70]"
  classLabel: "High"
- molecule: "COc1cc(-c2c(C)cccc2C)nc2c1C(Oc1cc(C(C)C)ccc1C)CCC2 (stereo not shown) [Compound 111]"
  classLabel: "High"
- molecule: "CCc1cccc(CC)c1-c1cc(OC)c2c(n1)CCCC2N(C)Cc1cccs1 (stereo not shown) [Compound 94]"
  classLabel: "High"
- molecule: "CCc1cccc(CC)c1-c1cc(O)c2c(n1)CCCC2Nc1cc(O)ccc1C (stereo not shown) [Compound 146]"
  classLabel: "High"
- molecule: "CCc1cccc(CC)c1-c1cc(OC)c2c(n1)CCCC2N1CCc2cccc(C(=O)OC)c2C1 (stereo not shown) [Compound 44]"
  classLabel: "Medium"
- molecule: "COc1cc(-c2c(C)cccc2C)nc2c1C(N(CC#N)c1cccc3ccccc13)CCC2 (stereo not shown) [Compound 49]"
  classLabel: "Medium"
- molecule: "CCc1cccc(CC)c1-c1cc(OC)c2c(n1)CCCC2N1CCc2c(Cl)cccc2C1 (stereo not shown) [Compound 56]"
  classLabel: "Medium"
- molecule: "CCc1cccc(CC)c1-c1cc(OC)c2c(n1)CCCC2Nc1ccc(CO)cc1C (stereo not shown) [Compound 141]"
  classLabel: "High"
- molecule: "CCN(c1cccc2ccccc12)C1CCCc2nc(-c3ccccc3C(C)C)cc(OC)c21 (stereo not shown) [Compound 57]"
  classLabel: "Medium"
- molecule: "CCc1cccc(CC)c1-c1cc(OC)c2c(n1)CCCC2N(C)c1cc(OC)ccc1C (stereo not shown) [Compound 38]"
  classLabel: "Low"
- molecule: "CCc1cccc(CC)c1-c1cc(OC)c2c(n1)CCCC2N(C)C1CCCc2ccccc21 (stereo not shown) [Compound 83]"
  classLabel: "High"
- molecule: "CCc1cccc(CC)c1-c1cc(SC)c2c(n1)CCCC2N(CC)c1cccc2ccccc12 (stereo not shown) [Compound 10]"
  classLabel: "Low"
- molecule: "CCc1cccc(CC)c1-c1cc(OC)c2c(n1)CCC[C@@H]2N(C)[C@@H]1CCCc2ccccc21 [Compound 59]"
  classLabel: "Medium"
- molecule: "CCc1cccc(CC)c1-c1cc(OC)c2c(n1)CCCC2Nc1cccc2c1CCC2 (stereo not shown) [Compound 121]"
  classLabel: "High"
- molecule: "CCc1cccc(CC)c1-c1cc(OC)c2c(n1)CCCC2N1CCc2ccccc21 (stereo not shown) [Compound 93]"
  classLabel: "High"
- molecule: "CCc1cccc(CC)c1-c1cc(CC)c2c(n1)CCCC2Nc1cc(OC)ccc1C (racemic) [Compound 25]"
  classLabel: "Low"
- molecule: "CCc1cccc(CC)c1-c1cc(OC)c2c(n1)CCCC2N(C)N1CCCc2ccccc21 (stereo not shown) [Compound 54]"
  classLabel: "Medium"
- molecule: "CCc1cccc(CC)c1-c1cc(OC)c2c(n1)CCC[C@@H]2N(C)[C@H]1CCCc2ccccc21 [Compound 77]"
  classLabel: "High"
- molecule: "CCc1cccc(CC)c1-c1cc(OC)c2c(n1)CCCC2N1CCc2ccc(C(=O)OC)cc2C1 (stereo not shown) [Compound 97]"
  classLabel: "High"
- molecule: "CCOc1cc(-c2c(CC)cccc2CC)nc2c1C(N(CC)c1cccc3ccccc13)CCC2 (racemic) [Compound 8]"
  classLabel: "Low"
